This listing pairs compounds with measured EC50.
- testedOn: GLP-1R (Homo sapiens, UniProt P43220)
- Sequence (P43220 24-463): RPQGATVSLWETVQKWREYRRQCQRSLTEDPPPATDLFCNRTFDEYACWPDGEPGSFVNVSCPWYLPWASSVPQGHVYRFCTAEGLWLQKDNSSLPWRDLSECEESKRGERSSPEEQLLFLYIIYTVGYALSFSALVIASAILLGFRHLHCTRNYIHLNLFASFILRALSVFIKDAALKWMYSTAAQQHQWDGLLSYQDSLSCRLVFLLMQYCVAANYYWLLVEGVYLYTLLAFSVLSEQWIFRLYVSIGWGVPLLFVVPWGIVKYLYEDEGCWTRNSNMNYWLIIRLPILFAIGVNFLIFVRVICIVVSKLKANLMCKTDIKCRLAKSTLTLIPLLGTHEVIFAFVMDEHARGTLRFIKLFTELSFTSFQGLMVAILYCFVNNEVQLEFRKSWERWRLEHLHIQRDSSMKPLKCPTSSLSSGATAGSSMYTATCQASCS
- measurementNotes: GLP-1R Activation - cAMP Assay
- Type: cell-based
- testSettings: cAMP increase in CHO cells stably expressing GLP-1R; each compound run on one of the two cAMP assays (Assay 1 or Assay 2, not specified)
The figure you give is taken to be in nM; do not add the unit.

Which EC50 value belongs to COCCn1c(Cc2cc(F)c(-c3cccc(OCc4ncc(C#N)cc4F)n3)cc2F)nc2ccc(C(=O)O)cc21 ?
8.98

Which EC50 value belongs to CC1(C)COC[C@H]1n1c(Cn2cc(F)c(-c3cccc(OCc4ccc(Cl)cc4F)n3)cc2=O)nc2c(F)cc(C(=O)O)cc21 ?
0.039

Which EC50 value belongs to CC1(C)COC[C@H]1n1c(Cc2cc(F)c(-c3cccc(OCc4ccc(C#N)cc4F)n3)cc2F)nc2c(F)cc(C(=O)O)cc21 ?
0.03
